Tested on: Listeria innocua ATCC 33090
TEST_METHOD_NOTES: Experiment 2: octanoate esterase substrates with different Indoxyl-based chromogenic markers
Type: cell-based
EXPERIMENTAL_CONDITIONS: IT 48 h, 37° C., substrate 250 mg/l
ASSAY_ENDPOINT: C (color of the colonies)

COMPOUND	ENDPOINT_RESULT
CCCCCCCC(=O)Oc1c[nH]c2cc(Cl)ccc12 [Pink-C8, 6-Chloro-3-indolyl octanoate]	pink
CCCCCCCC(=O)Oc1c[nH]c2ccc(Br)cc12 [Blue-C8, 5-Bromo-3-indolyl octanoate]	gray

====

Tested on: Listeria monocytogenes ATCC 19115
TEST_METHOD_NOTES: Experiment 2: octanoate esterase substrates with different Indoxyl-based chromogenic markers
Assay type: cell-based
EXPERIMENTAL_CONDITIONS: IT 48 h, 37° C., substrate 250 mg/l

MOLECULE	C (color of the colonies)
CCCCCCCC(=O)Oc1c[nH]c2ccc(Br)cc12 [Blue-C8, 5-Bromo-3-indolyl octanoate]	gray
CCCCCCCC(=O)Oc1c[nH]c2cc(Cl)ccc12 [Pink-C8, 6-Chloro-3-indolyl octanoate]	pink

====

Tested on: Listeria innocua 166
TEST_METHOD_NOTES: Experiment 3: detecting an esterase activity in liquid medium (API-type strips)
Assay type: cell-based
Design: key: —: the symbol “-” corresponds to the absence of color or intensity; 0 corresponds to no activity; 0.1 corresponds to a trace of color; 0.5 corresponds to very pale coloration; 1 corresponds to clear but low-intensity coloration; 1.5 corresponds to a degree of coloration intermediate between scores 1 and 2; 2 corresponds to clear coloration of moderate intensity; 2.5 corresponds to a degree of coloration intermediate between scores 2 and 3; 3 corresponds to intense coloration; 3.5 corresponds to a degree of coloration intermediate between scores 3 and 4; 4 corresponds to very intense coloration
EXPERIMENTAL_CONDITIONS: IT 4 h, 37° C.

MOLECULE	ASSAYED_TARGET	I (intensity of the color)
CCCCCCCC(=O)Oc1c[nH]c2ccc(Br)c(Cl)c12 [X-C8, 5-Bromo-4-chloro-3-indolyl octanoate]	Listeria innocua 166	—
CCCCCCCC(=O)Oc1c[nH]c2cc(Cl)c(Br)cc12 [Magenta-C8, 5-Bromo-6-chloro-3-indolyl octanoate]	Listeria innocua 166	—
CCCCCCCC(=O)Oc1c[nH]c2cc(Cl)ccc12 [Pink-C8, 6-Chloro-3-indolyl octanoate]	Listeria innocua 166	—

====

Tested on: Listeria innocua 166
TEST_METHOD_NOTES: Experiment 3: detecting an esterase activity in liquid medium (API-type strips)
Format: cell-based
Parameters: key: —: the symbol “-” corresponds to the absence of color or intensity; 0 corresponds to no activity; 0.1 corresponds to a trace of color; 0.5 corresponds to very pale coloration; 1 corresponds to clear but low-intensity coloration; 1.5 corresponds to a degree of coloration intermediate between scores 1 and 2; 2 corresponds to clear coloration of moderate intensity; 2.5 corresponds to a degree of coloration intermediate between scores 2 and 3; 3 corresponds to intense coloration; 3.5 corresponds to a degree of coloration intermediate between scores 3 and 4; 4 corresponds to very intense coloration
EXPERIMENTAL_CONDITIONS: IT 8 h, 37° C.
ASSAY_ENDPOINT: I (intensity of the color)

COMPOUND	ENDPOINT_RESULT
CCCCCCCC(=O)Oc1c[nH]c2cc(Cl)c(Br)cc12 [Magenta-C8, 5-Bromo-6-chloro-3-indolyl octanoate]	—
CCCCCCCC(=O)Oc1c[nH]c2ccc(Br)c(Cl)c12 [X-C8, 5-Bromo-4-chloro-3-indolyl octanoate]	—
CCCCCCCC(=O)Oc1c[nH]c2cc(Cl)ccc12 [Pink-C8, 6-Chloro-3-indolyl octanoate]	—

====

Tested on: Listeria ivanovii 018
TEST_METHOD_NOTES: Experiment 3: detecting an esterase activity in liquid medium (API-type strips)
Format: cell-based
Set-up: key: —: the symbol “-” corresponds to the absence of color or intensity; 0 corresponds to no activity; 0.1 corresponds to a trace of color; 0.5 corresponds to very pale coloration; 1 corresponds to clear but low-intensity coloration; 1.5 corresponds to a degree of coloration intermediate between scores 1 and 2; 2 corresponds to clear coloration of moderate intensity; 2.5 corresponds to a degree of coloration intermediate between scores 2 and 3; 3 corresponds to intense coloration; 3.5 corresponds to a degree of coloration intermediate between scores 3 and 4; 4 corresponds to very intense coloration
EXPERIMENTAL_CONDITIONS: IT 6 h, 37° C.

MOLECULE	ASSAYED_TARGET	I (intensity of the color)
CCCCCCCC(=O)Oc1c[nH]c2ccc(Br)c(Cl)c12 [X-C8, 5-Bromo-4-chloro-3-indolyl octanoate]	Listeria ivanovii 018	—
CCCCCCCC(=O)Oc1c[nH]c2cc(Cl)c(Br)cc12 [Magenta-C8, 5-Bromo-6-chloro-3-indolyl octanoate]	Listeria ivanovii 018	—
CCCCCCCC(=O)Oc1c[nH]c2cc(Cl)ccc12 [Pink-C8, 6-Chloro-3-indolyl octanoate]	Listeria ivanovii 018	—

====

System: Listeria monocytogenes 092
TEST_METHOD_NOTES: Experiment 3: detecting an esterase activity in liquid medium (API-type strips)
Format: cell-based
Parameters: key: —: the symbol “-” corresponds to the absence of color or intensity; 0 corresponds to no activity; 0.1 corresponds to a trace of color; 0.5 corresponds to very pale coloration; 1 corresponds to clear but low-intensity coloration; 1.5 corresponds to a degree of coloration intermediate between scores 1 and 2; 2 corresponds to clear coloration of moderate intensity; 2.5 corresponds to a degree of coloration intermediate between scores 2 and 3; 3 corresponds to intense coloration; 3.5 corresponds to a degree of coloration intermediate between scores 3 and 4; 4 corresponds to very intense coloration
EXPERIMENTAL_CONDITIONS: IT 4 h, 37° C.

MOLECULE	I (intensity of the color)
CCCCCCCC(=O)Oc1c[nH]c2cc(Cl)ccc12 [Pink-C8, 6-Chloro-3-indolyl octanoate]	—
CCCCCCCC(=O)Oc1c[nH]c2ccc(Br)c(Cl)c12 [X-C8, 5-Bromo-4-chloro-3-indolyl octanoate]	—
CCCCCCCC(=O)Oc1c[nH]c2cc(Cl)c(Br)cc12 [Magenta-C8, 5-Bromo-6-chloro-3-indolyl octanoate]	—
